Source listed as patent US9266930.

- System name: HLA-DR2w2β2 (DRB5*0101) (human)
Label 1 when binding affinity ratio (IC50 of standard peptide / IC50 of test peptide) is at or above -0.0006; otherwise label -1.

# Binder, Assigned label
records = [
    ("KYLVIVFLIFFDLFL (modifications not checked)", -1),
    ("ANQLVVILTDGIPDS (modifications not checked)", 1),
    ("ILSVFFLALFFIIFN (modifications not checked)", 1),
    ("VSTVLLGGVGLVLYN (modifications not checked)", 1),
    ("TVLLGGVGLVLYNTE (modifications not checked)", 1),
    ("CVEVEKTASCGVWDE (modifications not checked)", 1),
    ("MKILSVFFLALFFII (modifications not checked)", -1),
]
